Tested on: OVCAR-5 ovarian
assay remarks: NCI tumour cell line growth inhibition, 48 h
Entries annotated with measured GI50

Examples from the recorded data:
{"columns": ["compound", "assay result"],
 "data": [
  ["N#CC1=C(c2cccs2)Nc2c(c(-c3ccccc3)nn2-c2ccccc2)C12C(=O)Nc1ccc(Br)cc12 (centres undefined)", "16.5 µM"],
  ["C=C(C)[C@@H]1CC[C@]2(C(=O)OC)CC[C@]3(C)[C@H](CC[C@@H]4[C@@]5(C)CC[C@H](N)C(C)(C)[C@@H]5CC[C@]43C)[C@@H]12", "1.69 µM"],
  ["C=C1CC[C@@H]2[C@]3(C)COC(c4cn[nH]c4-c4ccccc4)O[C@@H]3CC[C@@]2(C)[C@@H]1C/C=C1/C(=O)OCC1O (some centres undefined)", "19.2 µM"]
]}

Would you kindly look at the next entry?
Query O=c1[nH]n(C(=S)N/N=C/c2ccccc2Cl)c(=O)c2ccccc12 yields GI50 of 3.56 µM
